Some compounds, each annotated with its measured IC50.
- System under test: Mushroom tyrosinase (Agaricus bisporus, UniProt O42713+Q00024+C7FF04+C7FF05)
- Assay notes: Inhibition of mushroom tyrosinase using L-DOPA as substrate preincubated for 10 mins followed by substrate addition by absorbance based analysis
Property label: IC50 (nM)

| Compound | Property label | Observed measurement |
| --- | --- | --- |
| COc1cc(/C=N/c2nnc(S)s2)cc(OC)c1O | IC50 | 473 |
| COc1cccc(C2CC(c3cc4ccccc4oc3=O)=NN2c2nc(-c3ccc(Br)cc3)cs2)c1O (stereo unspecified) | IC50 | 37 |
| COc1cc(/C=N/c2nnc(S)s2)cc(OC)c1 | IC50 | 5350 |
| CN(C)c1ccc(C2CC(c3cc4ccccc4oc3=O)=NN2c2nc(-c3ccc(Br)cc3)cs2)cc1 (stereo unspecified) | IC50 | 220 |
| CC(C)(C)c1ccc(/C=N/c2nnc(S)s2)cc1 | IC50 | 1400 |
| Sc1nnc(/N=C/c2ccc(Cl)c(Cl)c2)s1 | IC50 | 3620 |
